assay: pharmacokinetics after oral administration to male Beagle dogs; assay type: in vivo, Beagle dog; conditions: male, Beagle (HsdRcc:DOBE), dog, plasma, po, 1.5 mg/kg, Plasma concentration of (+)-α-dihydrotetrabenazine, Mean of 3 dogs, oral 1.50 mg/kg (freebase equivalent), 0.5 h
Property Name: concentration at 0.5 h (ng/mL)
Report as a plain number; the unit ng/mL is understood.

# concentration at 0.5 h (compound: COc1cc2c(cc1OC)[C@H]1C[C@@H](O)[C@H](CC(C)C)CN1CC2.O=C(O)CCC(=O)O [(+)-α-dihydrotetrabenazine succinate] ) is 54.4

* * *

experiment: pharmacokinetics after oral administration to male Beagle dogs; assay type: in vivo, Beagle dog; details: male, Beagle (HsdRcc:DOBE), dog, plasma, po, 1.5 mg/kg, Plasma concentration of (+)-α-dihydrotetrabenazine, Mean of 3 dogs, oral 1.50 mg/kg (freebase equivalent), 6 h; BLQ treated as zero
Property Name: concentration at 6 h (ng/mL)
The figure you give is taken to be in ng/mL; do not add the unit.

Kindly note the recorded concentration at 6 h for COc1cc2c(cc1OC)[C@H]1C[C@@H](O)[C@H](CC(C)C)CN1CC2.O=C(O)CCC(=O)O [(+)-α-dihydrotetrabenazine succinate] , which is 0.66

* * *

Test: pharmacokinetics after oral administration to male Beagle dogs
Type: in vivo, Beagle dog
Conditions: male, Beagle (HsdRcc:DOBE), dog, plasma, po, 1.5 mg/kg, Plasma concentration of (+)-α-dihydrotetrabenazine, Male 3, oral 1.50 mg/kg (freebase equivalent), 1 h
Method: Doses were administered orally, via gavage, at a dose volume of 2.00 mL/kg yielding the target dose level of 1.50 mg/kg. Following dosing, 10 mL of tap water was flushed down the gavage to ensure the entire dose was dispensed. Following dosing over four sessions each with one of the test materials, serial whole blood samples (circa. 1.3 mL) were collected from a jugular vein then placed into K2 EDTA treated tubes pre-dose and then 0.25, 0.50, 1, 2, 3, 4, 6, 12 and 24 hours post dose. […]
Property Name: concentration at 1 h (µg/mL)
Number in µg/mL, nothing else.

Data point: COc1cc2c(cc1OC)[C@H]1C[C@@H](O)[C@H](CC(C)C)CN1CC2.O=C(O)CCC(=O)O [(+)-α-dihydrotetrabenazine succinate] ; concentration at 1 h = 0.0492

* * *

assay: pharmacokinetics after oral administration to male Beagle dogs; format: in vivo, Beagle dog; settings: male, Beagle (HsdRcc:DOBE), dog, plasma, po, 1.5 mg/kg, Plasma concentration of (+)-α-dihydrotetrabenazine, Male 3, oral 1.50 mg/kg (freebase equivalent), 4 h
Property Name: concentration at 4 h (ng/mL)
Enter your answer as a number in ng/mL; do not include the unit.

Entry under test: COc1cc2c(cc1OC)[C@H]1C[C@@H](O)[C@H](CC(C)C)CN1CC2.O=C(O)CCC(=O)O [(+)-α-dihydrotetrabenazine succinate] . Its concentration at 4 h was 6.21

* * *

experiment: pharmacokinetics after oral administration to male Beagle dogs; type: in vivo, Beagle dog; conditions: male, Beagle (HsdRcc:DOBE), dog, plasma, po, 1.5 mg/kg, Plasma concentration of (+)-α-dihydrotetrabenazine, Male 1, oral 1.50 mg/kg (freebase equivalent), 0.5 h
Property Name: concentration at 0.5 h (ng/mL)
Report as a plain number; the unit ng/mL is understood.

Recorded result, COc1cc2c(cc1OC)[C@H]1C[C@@H](O)[C@H](CC(C)C)CN1CC2.O=C(O)CCC(=O)O [(+)-α-dihydrotetrabenazine succinate] , concentration at 0.5 h: 47.6
